# system under test: hTRPML3 (Homo sapiens, UniProt Q8TDD5)
# Construct: expressed in transfected cells; host or cells: HEK-293 Trex (by analogy, 'performed as above')
# Sequence (Q8TDD5 1-553): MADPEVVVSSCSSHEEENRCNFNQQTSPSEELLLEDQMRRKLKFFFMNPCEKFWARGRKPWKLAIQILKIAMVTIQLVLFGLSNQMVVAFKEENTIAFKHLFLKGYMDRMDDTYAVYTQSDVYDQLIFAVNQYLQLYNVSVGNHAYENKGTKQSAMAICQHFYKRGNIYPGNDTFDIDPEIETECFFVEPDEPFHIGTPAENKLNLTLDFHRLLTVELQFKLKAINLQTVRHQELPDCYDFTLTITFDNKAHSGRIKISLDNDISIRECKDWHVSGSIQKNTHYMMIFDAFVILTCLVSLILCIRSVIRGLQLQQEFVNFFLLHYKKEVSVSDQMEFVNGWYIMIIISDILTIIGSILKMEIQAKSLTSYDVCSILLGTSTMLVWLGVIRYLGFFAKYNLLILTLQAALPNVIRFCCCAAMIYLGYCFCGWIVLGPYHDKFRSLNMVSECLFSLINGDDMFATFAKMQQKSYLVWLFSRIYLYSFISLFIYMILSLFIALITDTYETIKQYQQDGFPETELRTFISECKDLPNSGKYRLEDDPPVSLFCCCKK
# procedure summary: TRPML3 fluorescent (Fluo-4) assay
# Type: cell-based
# conditions used: activation; read-out: Secondary Screening: Fluo-4: hTRPML3: EC50
# Method: Assays for TRPML2 and TRPML3 were performed as above for TRPML1, by substituting the appropriate TRPML2 or TRPML3 subtype for the TRPML1. EC50 values were calculated using a non-linear regression of Prism.
Here the recorded EC50 is given for each entry.

Examples with their reported EC50 follow.
molecule	EC50
CN(c1ccccc1NS(=O)(=O)c1ccc(S(=O)(=O)N(C)C)cc1)C1CCN(C(=O)Oc2ccccc2)C1 (stereo not shown)	300 to 1000 nM
CN(c1ccccc1NS(=O)(=O)c1ccc(S(=O)(=O)N(C)C)cc1)[C@H]1CCN(c2ccc(Cl)cc2F)C1	< 300 nM
CN(c1ccccc1NS(=O)(=O)c1ccc(S(=O)(=O)N(C)C)cc1)[C@@H]1CCN(c2ccc(Cl)cc2F)C1	< 300 nM

q: I am curious: what EC50 value has been reported for CN(C)S(=O)(=O)c1ccc(S(=O)(=O)Nc2ccccc2N2CCN(C34CC(C3)C4)CC2)cc1 ?
a: 300 to 1000 nM

q: I am curious: what EC50 value has been reported for Cc1ccc(S(=O)(=O)N[C@H]2CCCC[C@@H]2N2CCN(c3ccc(Cl)cc3F)CC2)cc1 (relative stereo) ?
a: < 300 nM

q: I am curious: what EC50 value has been reported for CN(C)S(=O)(=O)c1ccc(S(=O)(=O)N[C@H]2CCCC[C@H]2N2CCN(c3ccc(Cl)cc3F)CC2)cc1 (stereo in doubt) ?
a: 300 to 1000 nM

q: I am curious: what EC50 value has been reported for CN(c1ccccc1NS(=O)(=O)c1ccc(S(=O)(=O)N(C)C)cc1)C1CCN(c2ccc(Cl)cc2F)C1 (stereo not shown) ?
a: < 300 nM

q: I am curious: what EC50 value has been reported for CN(c1ccccc1NS(=O)(=O)c1ccc(S(C)(=O)=O)cc1)C1CCN(c2ccc(Cl)cc2F)C1 (stereo not shown) ?
a: 1000 to 5000 nM

q: I am curious: what EC50 value has been reported for CN(C)S(=O)(=O)c1ccc(S(=O)(=O)N[C@@H]2CCCCC[C@@H]2N2CCN(c3ccc(Cl)cc3F)CC2)cc1 (relative stereo) ?
a: 300 to 1000 nM

q: I am curious: what EC50 value has been reported for CN(c1ccccc1NS(=O)(=O)c1ccc(S(=O)(=O)N(C)C)cc1)C1CCN(C(=O)OC(C)(C)C)C1 (stereo not shown) ?
a: 300 to 1000 nM
